Test system: OVCAR-4 ovarian
TEST_METHOD_NOTES: NCI tumour cell line growth inhibition, 48 h; in the data active = GI50 below about 0.43 µM; inactive = the rest
Allowed answers: true for active, false for inactive

C=C1c2c(C)nn(-c3ccc(C#CCOC4OC(CO)C(O)C(O)C4O)cc3)c2N(C)C23C[C@H]1C1(C)c4c(C)nn(-c5ccc(C#CCOC6OC(CO)C(O)C(O)C6O)cc5)c4N(C)C(C)(C[C@H]12)C3 (stereo partly specified)
false
C#CC1(O)C(COP(=O)(O)OCC(COP(=O)(O)OCC2OC(n3cc(F)c(=O)[nH]c3=O)CC2O)OCCCCCCCCCCCCCCCCCC)OC(n2ccc(N)nc2=O)C1O (stereo unspecified)
false
COc1ccc2c(c1)NC1=C(C(=O)OC1)C2c1cc(OC)c(OC)c(OC)c1 (stereo unspecified)
true
CC(=O)OC1OC([C@H]2c3cccc(O)c3C(=O)c3c(O)cc(C)cc32)C(O)C(O)C1O (stereo partly specified)
true
CCN1C(=O)c2ccc3c4c(ccc(c24)C1=O)C(=O)N(CCCNCc1ccccc1OC)C3=O
true

Please turn your attention to the following entry.
Q) Status in this test for CCOC(=O)Nc1cc2c(c(N)n1)N=C(c1ccc(OC)cc1)CN2 ?
A) false
